Biological target: T1, MPP1, Q00013
T1 sequence (Q00013 66-162, limits assumed, looked up): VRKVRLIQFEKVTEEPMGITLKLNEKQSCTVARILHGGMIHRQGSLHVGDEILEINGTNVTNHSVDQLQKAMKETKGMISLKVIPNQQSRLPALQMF
Assay: holdup assay
Parameters: key: below the threshold = too weak to quantify, mostly under pKd 3.1 to 4
Conditions: plain residues with an end cap or a label only (N-terminal biotin on a linker: ttds)
The entries below come with measured pKd values attached.
The answer should be written as a number, with no unit following it.

| BINDER | pKd |
| --- | --- |
| SGSRPSATVV [HPV73-E6, Q82005] | 4.14 |
| RLPKIKETTV [FRMPD4, Q14CM0] | 5.3 |
| SSLQSLETSV [ATP2B4, P23634] | 4.23 |
| RPLPRKVSQL [DOCK4, Q8N1I0] | 4.29 |
| QRQARSETLV [HPV59-E6, Q81964] | 6.03 |

pKd lookup needed for RHTTSTETAV [HPV30-E6, P36809] , thanks.
5.17
